Every entry's value here was drawn from patent US20030229087A1.

System: Pyrenophora teres
Experiment: Pyrenophora teres test (barley)/protective
Format: in vivo
Settings: protective, application rate 25 g/ha, evaluation 7 days after inoculation
Procedure: Pyrenophora teres Test (Barley)/Protective To produce a suitable preparation of active compound, 1 part by weight of active compound or active compound combination is mixed with the stated amounts of solvent and emulsifier, and the concentrate is diluted with water to the desired concentration. To test for protective activity, young plants are sprayed with the preparation of active compound at the stated application rate. […]
Kindly state Efficacy in % for each of the entries shown.
Answer with a number only, understood to be in %.

Problem: Dear colleague, I am looking for the recorded Efficacy in % of the following compound: Fc1ccc(C2(Cn3cncn3)OC2c2ccccc2Cl)cc1 (stereo not drawn)
Solution: 60

Problem: Dear colleague, I am looking for the recorded Efficacy in % of the following compound: CNC(=O)/C(=N/OC)c1ccccc1Oc1ncnc(Oc2cccc(Cl)c2C)c1F
Solution: 60

Problem: Dear colleague, I am looking for the recorded Efficacy in % of the following compound: Cc1cc(C2CC2)nc(Nc2ccccc2)n1
Solution: 0

Problem: Dear colleague, I am looking for the recorded Efficacy in % of the following compound: CC(C)(C)C(O)C(Oc1ccc(Cl)cc1)n1cncn1 (stereo not drawn)
Solution: 30

Problem: Dear colleague, I am looking for the recorded Efficacy in % of the following compound: CC(C)(C)C(O)(CCc1ccc(Cl)cc1)Cn1cncn1 (stereo not drawn)
Solution: 0

Problem: Dear colleague, I am looking for the recorded Efficacy in % of the following compound: OC(Cc1ccccc1Cl)(Cn1nc[nH]c1=S)C1(Cl)CC1 (stereo not drawn)
Solution: 70
